Target: full length human wildtype Btk (Homo sapiens, UniProt Q06187)
Construct: V5 (C); 6xHis (C); made in house; host or cells: Sf9 insect cells (baculovirus, pFastBac)
Sequence (Q06187 whole entry): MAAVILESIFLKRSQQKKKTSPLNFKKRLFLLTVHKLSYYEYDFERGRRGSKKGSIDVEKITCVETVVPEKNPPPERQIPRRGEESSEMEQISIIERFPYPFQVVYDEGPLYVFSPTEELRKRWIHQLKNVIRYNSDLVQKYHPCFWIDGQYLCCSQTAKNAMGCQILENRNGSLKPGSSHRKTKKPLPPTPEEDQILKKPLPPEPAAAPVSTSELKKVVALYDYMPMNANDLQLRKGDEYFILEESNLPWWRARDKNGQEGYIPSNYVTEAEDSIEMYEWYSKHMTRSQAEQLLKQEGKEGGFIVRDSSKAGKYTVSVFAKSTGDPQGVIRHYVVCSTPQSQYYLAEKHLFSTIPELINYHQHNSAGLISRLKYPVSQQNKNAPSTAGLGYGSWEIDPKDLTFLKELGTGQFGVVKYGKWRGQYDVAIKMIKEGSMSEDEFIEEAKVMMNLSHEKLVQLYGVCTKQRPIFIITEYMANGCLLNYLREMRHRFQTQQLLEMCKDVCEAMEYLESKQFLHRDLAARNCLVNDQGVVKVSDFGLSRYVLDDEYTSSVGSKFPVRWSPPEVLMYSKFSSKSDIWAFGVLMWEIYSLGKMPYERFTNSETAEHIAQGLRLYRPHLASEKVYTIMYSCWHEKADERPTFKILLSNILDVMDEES
Assay: Biochemical Btk Assay (BTK LC3K)
Settings: Table 1
Experimental: A generalized procedure for a standard biochemical Btk, Kinase Assay that can be used to test Formula I compounds is as follows. […] A quantity of 1.25 μL (microliter) of compounds in 5% DMSO is transferred to a 96-well ½ area Costar polystyrene plate. […] A quantity of 18.75 μL of master mix minus enzyme (as a negative control) and master mix plus enzyme is transferred to appropriate wells in 96-well ½ area costar polystyrene plate. […] IC50 values are subsequently calculated. […]
The threshold is 30 nM. Values of Ki beneath it are tagged Condition met; values meeting or exceeding it are tagged Condition not met.

Molecule: Cn1cc(-c2ccnc(N3CCn4c(cc5c4CC(C)(C)C5)C3=O)c2CO)cc(NC(=O)c2ccccc2)c1=O
Assigned Label: Condition not met

Molecule: Cc1cc(C(=O)Nc2cc(-c3ccnc(N4CCn5c(cc6c5CC(C)(C)C6)C4=O)c3CO)cn(C)c2=O)n[nH]1
Assigned Label: Condition not met

Molecule: Cn1cc(C(=O)Nc2cc(-c3ccnc(N4CCn5c(cc6c5CC(C)(C)C6)C4=O)c3CO)cn(C)c2=O)cn1
Assigned Label: Condition not met

Molecule: CCC(=O)Nc1cc(-c2ccnc(-n3ncc4cc(C(C)(C)C)cc(F)c4c3=O)c2CO)cn(C)c1=O
Assigned Label: Condition met

Molecule: Cn1cc(-c2ccnc(N3CCn4c(cc5c4CC(C)(C)C5)C3=O)c2CO)cc(NC(=O)C2CC2(F)F)c1=O (stereo not drawn)
Assigned Label: Condition not met

Molecule: CC1CC1C(=O)Nc1cc(-c2ccnc(N3CCn4c(cc5c4CC(C)(C)C5)C3=O)c2CO)cn(C)c1=O (stereo not drawn)
Assigned Label: Condition met

Molecule: CC(=O)Nc1cc(-c2ccnc(-n3ncc4cc(C(C)(C)C)cc(F)c4c3=O)c2CO)cn(C)c1=O
Assigned Label: Condition met

Molecule: Cn1cc(-c2ccnc(N3CCn4c(cc5c4CC(C)(C)C5)C3=O)c2CO)cc(NC(=O)c2ccc(N3CCCC3)nc2)c1=O
Assigned Label: Condition not met

Molecule: Cc1cc(C)n(CC(=O)Nc2cc(-c3ccnc(N4CCn5c(cc6c5CC(C)(C)C6)C4=O)c3CO)cn(C)c2=O)n1
Assigned Label: Condition not met

Molecule: Cn1cc(-c2ccnc(N3CCn4c(cc5c4CC(C)(C)C5)C3=O)c2CO)cc(NC(=O)CN2CCOCC2)c1=O
Assigned Label: Condition not met

Molecule: Cc1cc(C(=O)Nc2cc(-c3ccnc(N4CCn5c(cc6c5CC(C)(C)C6)C4=O)c3CO)cn(C)c2=O)nn1C
Assigned Label: Condition not met

Molecule: Cn1cc(-c2ccnc(N3CCn4c(cc5c4CC(C)(C)C5)C3=O)c2CO)cc(NC(=O)c2cnco2)c1=O
Assigned Label: Condition not met

====

target: full length human wildtype Btk (Homo sapiens, UniProt Q06187); construct: V5 (C); 6xHis (C); made in house; host or cells: Sf9 insect cells (baculovirus, pFastBac); assay: Biochemical Btk Assay (BTK LC3K); details: Table 2
Below is a list of entries, each paired with its recorded Ki value.
Quantity: Ki (µM)

Molecule: CCNC(=O)Nc1cc(-c2ccnc(N3CCn4c(cc5c4CC(C)(C)C5)C3=O)c2CO)cn(C)c1=O
Scale Unit: µM
Reported Result: 0.0016

Molecule: CCOC1C[C@H]1C(=O)Nc1cc(-c2ccnc(N3CCn4c(cc5c4CC(C)(C)C5)C3=O)c2CO)cn(C)c1=O (single isomer, unassigned)
Scale Unit: µM
Reported Result: 0.053

Molecule: COCC(=O)Nc1cc(-c2ccnc(-n3ncc4cc(C(C)(C)C)cc(F)c4c3=O)c2CO)cn(C)c1=O
Scale Unit: µM
Reported Result: 0.021
